Test: replicating M. tuberculosis growth inhibition, dose response, non-replicating M. tuberculosis project, H37Rv (AID 492952);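 further: Mycobacterium tuberculosis grown in culture; growth inhibition read after a week of incubation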
Conditions: series mostly up to 50 µM
Out of some 2,300 compounds screened, about 1,500 (65%) were called active. The set was probably picked from earlier hits. The list shows a part of the results. Potency and affinity values are given separately.

Smiles Structure | outcome
CC1CCN(CCOCCSc2ccc(Cl)cc2)CC1 | inactive
O=C(COc1ccc(Cl)cc1)Nc1ccc2[nH]ncc2c1 | inactive
O=C(CCCSc1nc2ccccc2s1)NCc1ccco1 | inactive
Cc1ccc(SCCC(=O)OCC(=O)NCC2CCCCC2)cc1 | inactive
COc1cc(Cl)cc(/C=N/NC(N)=O)c1O | inactive
CC(=O)c1ccc(-c2nnc(CCC(=O)N(C)Cc3cccc4cnccc34)o2)s1 | inactive
